System: OVCAR-8 ovarian
experiment_summary: NCI-60 one-dose screen, 48 h (100 = growth as untreated, 0 = no growth, -100 = all killed)
condition_notes: 10 µM
Compounds without any hit were thinned out: in the full panel of roughly 83,000, 20% have a hit.
measure_name: growth (%)

• COc1ccc(C2c3sc4ccc(C)cc4c3Oc3nc(N)nc(N)c32)cc1 (configuration not stated) = 87
• CCn1c(SCC(=O)Nc2ccc(-c3nc4ccccc4[nH]3)cc2)nc2ccccc2c1=O = -85.5
• C#C[C@]1(O)CC[C@H]2[C@@H]3CC=C4c5sc(Nc6ccc(N(C)C)cc6)nc5CC[C@]4(C)[C@H]3CC[C@@]21C = 0.0481
• CC1[C@H]2[C@H](C[C@H]3[C@@H]4CC=C5c6sc(Nc7cccc(Cl)n7)nc6CC[C@]5(C)[C@H]4CC[C@@]32C)O[C@]12CC[C@@H](C)CO2 (some centres not stated) = 74.2
• Fc1ccc(/C=C/c2nc3ccccc3n3c(-c4ccc(Cl)cc4)nnc23)cc1 = 72.6
• O=C1NC2C=CC=CC2/C1=C1/SC(=S)N(C2CC(=O)N(c3ccc(Br)cc3)C2=O)C1=O (configuration not stated) = 97.6
• Cc1ccc2sc3c(c2c1)Oc1nc[nH]c(=O)c1C3c1cccc(F)c1 (configuration not stated) = 107
• COc1ccc(OC)c(-n2cc(C#N)c(N)c2C(=O)c2ccc(Cl)cc2Cl)c1 = 68.8
• COc1ccc(Cc2nn(CC(=O)N/N=C/c3ccc(Br)cc3)c(=O)c3c(C)noc23)cc1 = 33.9
• COc1ccc(-n2c(SCC(=O)NNS(=O)(=O)c3ccccc3)nc3ccc(Cl)cc3c2=O)cc1 = 101
• O=C(CSc1nc2ccccc2c(=O)n1-c1ccc(Cl)cc1)Nc1ccc(-c2nc3ccc([N+](=O)[O-])cc3[nH]2)cc1 = -87.5
• O=C(CC(=O)Nc1ccc(Oc2ncnc3scc(Nc4n[nH]c(=S)s4)c23)cc1)Nc1ccc(Br)cc1 = 102
• O=[N+]([O-])c1cccc(-c2nnc3c(/C=C/c4ccccc4O)nc4ccccc4n23)c1 = 58.1
• Cc1ccc2c(c1)C(=O)/C(=C/c1c[nH]c3ccccc13)S2 = 55.3
• CCOC(=O)c1ccc(NC(=O)CSC(CC(=O)c2sc(Nc3ccccn3)nc2C)c2ccccc2F)cc1 (configuration not stated) = -0.285
• COc1cc(C2CC(c3ccc(Oc4ccc(Cl)cc4)cc3)=NN2c2nc(-c3ccc(Cl)cc3)c(C#N)c(N3CCOCC3)n2)cc(OC)c1OC (configuration not stated) = 104
• Cn1cc(-c2nnc(N)nc2-c2c[nH]c3ccc(F)cc23)c2cc(Br)cnc21 = 71.5

Recorded values, source PubChem BioAssay (NCI).
